assay.details: ATP-PPi exchange assay (amino acid activation)
Format: biochemical
recorded.conditions: nsAA pAcF
Reported values of kcat for individual entries
measurement.label: kcat

{"columns": ["molecule", "measured.value"],
 "data": [
  ["pAcFRS.1.t2: pAcFRS variant A167D, R257C, F261E, SEQ ID NO: 6 (protein) MDEFEMIKRNTSEIISEEELREVLKKDEKSALIGFEPSGKIHLGHYLQIKKMIDLQNAGFDIIILLADLHAYLNQKGELDEIRKIGDYNKKVFEAMGLKAKYVYGSEFQLDKDYTLNVYRLALKTTLKRARRSMELIAREDENPKVAEVIYPIMQVNGCHYRGVDVDVGGMEQRKIHMLARELLPKKVVCIHNPVLTGLDGEGKMSSSKGNFIAVDDSPEEIRAKIKKAYCPAGVVEGNPIMEIAKYFLEYPLTIKCPEKEGGDLTVNSYEELESLFKNKELHPMRLKNAVAEELIKILEPIRKRL", "6.30 ± 0.46 ×10^−2 s^−1"],
  ["pAcFRS.t1: pAcFRS variant R257G, SEQ ID NO: 3 (protein) MDEFEMIKRNTSEIISEEELREVLKKDEKSALIGFEPSGKIHLGHYLQIKKMIDLQNAGFDIIILLADLHAYLNQKGELDEIRKIGDYNKKVFEAMGLKAKYVYGSEFQLDKDYTLNVYRLALKTTLKRARRSMELIAREDENPKVAEVIYPIMQVNGCHYRGVDVAVGGMEQRKIHMLARELLPKKVVCIHNPVLTGLDGEGKMSSSKGNFIAVDDSPEEIRAKIKKAYCPAGVVEGNPIMEIAKYFLEYPLTIKGPEKFGGDLTVNSYEELESLFKNKELHPMRLKNAVAEELIKILEPIRKRL", "6.92 ± 1.27 ×10^−2 s^−1"]
]}
